- System: U2OS
- test-summary: mean cytoplasmic OPP incorporation (global translation) relative to DMSO (% of DMSO); higher = more protein synthesis
- test-parameters: 10 µM; 24 h
Counter-ions that a name gives are not always drawn. Over roughly 3,100 compounds, “mean cytoplasmic OPP incorporation (global translation) relative to DMSO” has its median near 100; the lowest 2% begin near 56. The entries come from a sample that favours the lowest values as a whole.
test-readout: mean cytoplasmic OPP incorporation

| compound | target-or-test-system | experimental-result |
| --- | --- | --- |
| Nc1nc(NCCc2ccc(O)cc2)nc2nc(-c3ccco3)nn12 | U2OS | 99.2 |
| CC(=O)OCCN1C(=O)c2c(C)nc3ccc(S(=O)(=O)N4CCOCC4)cc3c2C1=O | U2OS | 105 |
| Cc1cc(C(=O)NNCc2ccccc2)no1 | U2OS | 106 |
| CC1(C)S[C@@H]2[C@H](NC(=O)Cc3ccccc3)C(=O)N2[C@H]1C(=O)O | U2OS | 104 |
| COc1ccc(CCN(C)CCCOc2ccc(S(=O)(=O)c3c(C(C)C)c4ccccc4n3C)cc2)cc1OC | U2OS | 110 |
| Cc1cc(C(=O)O)sc1C(N)C(=O)O (centres undefined) | U2OS | 104 |
| CC(C)SC(=N)N [S-Isopropylisothiourea hydrobromide] | U2OS | 102 |
| CCN(CC)CCOc1ccc(Nc2ncc3cc(-c4c(Cl)cccc4Cl)c(=O)n(C)c3n2)cc1 | U2OS | 53.6 |
| CCS(=O)(=O)c1cccc(-c2cc(C(=O)NC3CCN(C)CC3)c(C)c3[nH]c4ncc(C)cc4c23)c1 | U2OS | 46.8 |

###

- Tested on: U2OS
- test-summary: mean cytoplasmic OPP incorporation (global translation) relative to DMSO (% of DMSO); higher = more protein synthesis
- test-parameters: 10 µM; 24 h
Counter-ions that a name gives are not always drawn. In all, about 3,100 compounds were measured (“mean cytoplasmic OPP incorporation (global translation) relative to DMSO”: median about 100, lowest 2% from about 56 on). Only a selection was taken, and the lowest values are over-represented in it overall.
Recorded mean cytoplasmic OPP incorporation by entry

| compound | mean cytoplasmic OPP incorporation |
| --- | --- |
| Cc1ccc(NC(=O)c2ccc(CN3CCN(C)CC3)cc2)cc1Nc1nccc(-c2cccnc2)n1 [Imatinib (STI571)] | 124 |
| COCC(=O)O[C@]1(CCN(C)CCCc2nc3ccccc3[nH]2)CCc2cc(F)ccc2[C@@H]1C(C)C [Mibefradil dihydrochloride] | 116 |
| Nc1ccccc1NC(=O)c1ccc(CNC(=O)OCc2cccnc2)cc1 [Entinostat (MS-275, SNDX-275)] | 23.5 |
| Nc1ccccc1NC(=O)c1ccc(CNc2nccc(-c3cccnc3)n2)cc1 [Mocetinostat (MGCD0103)] | 35.5 |
| O=Cc1c2[nH]c3ccccc3c2cc2[nH]c3ccccc3c12 [6-Formylindolo [3,2-B] carbazole] | 92.9 |
| CC(=O)Nc1ccc(C(=O)Nc2ccccc2N)cc1 | 57.3 |
| Cc1ccc(NC(=O)c2ccc(CN3CCN(C)CC3)cc2)cc1Nc1nccc(-c2cccnc2)n1 [Imatinib Mesylate] | 130 |
| O=S1(=O)c2cccc3cccc(c23)N1CCCN1CCN(c2ccc(F)cc2)CC1 [Fananserin] | 103 |

###

- System: U2OS
- test-summary: mean cytoplasmic OPP incorporation (global translation) relative to DMSO (% of DMSO); higher = more protein synthesis
- test-parameters: 10 µM; 24 h
Over roughly 3,100 compounds, “mean cytoplasmic OPP incorporation (global translation) relative to DMSO” has its median near 100; the lowest 2% begin near 56. The sample holds the lowest values, similar compounds and a random draw of the others, so the mix is not that of the screen.
Recorded mean cytoplasmic OPP incorporation by entry

| compound | mean cytoplasmic OPP incorporation |
| --- | --- |
| CCCCCCCCOC(=O)/C=C/c1ccc(O)c(O)c1 [n-Octyl caffeate] | 88.9 |
| COc1cccc(-c2cc(NCc3ccc4c(c3)OCO4)nc(N)n2)c1 | 92.3 |
| Cn1cccc1/C=C1\C(=O)NC(=O)c2ccccc21 | 89.4 |
| CC1=C(/C=C/C(C)=C/C=C/C(C)=C\CO)C(C)(C)CCC1 [13-cis-Retinol] | 90.9 |
| O=C1Nc2ccc(-c3cccnc3)cc2/C1=C/c1ccc[nH]1 | 90 |
